Entries and their IC50
# target entity: T1, biotinylated IL-22 with an N-terminal His/FLAG tag (bio.IL-22H/F) (human, UniProt Q9GZX6 34-179, biotinylated (site not stated))
# T1 construct: not shown: N-terminal His/FLAG tag
# T1 sequence: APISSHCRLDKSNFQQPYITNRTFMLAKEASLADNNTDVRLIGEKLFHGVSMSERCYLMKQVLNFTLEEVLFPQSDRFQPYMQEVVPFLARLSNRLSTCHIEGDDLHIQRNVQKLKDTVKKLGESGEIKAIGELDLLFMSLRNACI
# assay name: biotinylated IL-22 binding IL-22 receptor complex competition assay, purified scFv, fully germlined
measured metric: IC50 (nM)

- binder: "GIL60 scFv, fully germlined (scFv) scFv: EVQLVESGGGVVRPGGSLRLSCAASGFTFDDYGMNWVRQAPGKGLEWVSGVNWNGGTRDYAASVKGRFTISRDNAKNSLYLQMNSLRAEDTALYHCARGWYSGSFYYFGYWGRGTLVTVSSGGGGSGGGGSGGGGSAQAALTQPASVSGSPGQSITISCTGASGDVGAYNFVSWYQQHPGKAPKLIIYDVNKRPSGVSNRFSGSKSGNTASLTISGLQAEDEADYYCSSYTSTFSVVFGGGTKLTVLGA"
  measured metric: "IC50"
  result units: "nM"
  quantitative result: 82
- binder: "GIL16 scFv, fully germlined (scFv) scFv: QVQLVQSGAEVKKPGASVKVSCKASGYTFTSYGISWVRQAPGQGLEWMGWISAYTGNTNYAQKFQGRVTMTTDTSTSTAYMELRSLRSDDTAVYYCARDRGYYDAFDIWGQGTLVTVSSGGGGSGGGGSGGGGSDIQMTQSPSTLSASVGDRVTITCRASEGIYHWLAWYQQKPGKAPKLLIYKASSLASGVPSRFSGSGSGTEFTLTISSLQPDDFATYYCQQYSNYPLTFGGGTKVEIKRA"
  measured metric: "IC50"
  result units: "nM"
  quantitative result: 38
